# Tested on: yeast cocktail (Raised, Rough and Flat white yeast and a pink yeast)
# ASSAY: “Yeast” procedure, yeast cocktail
# Type: cell-based
# MEASUREMENT SETUP: after 4 hours in buffer of 375 ppm acetic acid and 525 ppm sodium acetate, pH 4.74
MEASURED METRIC: Yeast Cocktail count

COMPOUND	RESULT
[Cl-].[Na+] [24% NaCl, sodium chloride, reference compound]	6,600 cfu/mL
CCCCCCCC(=O)[O-].[Na+] [70 ppm Na Octanoate, sodium octanoate]	7,500 cfu/mL
CCCCCCCC(=O)[O-].[Na+] [140 ppm Na Octanoate, sodium octanoate]	10,000 cfu/mL
CCCCCCCC(=O)[O-].[Na+] [35 ppm Na Octanoate, sodium octanoate]	9,000 cfu/mL
